assay: Phase 1 first-in-human study (NCT04178902): pharmacokinetics; assay type: in vivo; details: human, in vivo, 0.08 mg/kg, Cycle 1 Day 1, DOSE_MGKG 0.08, cohort 1, PKTIME 8.5; read-out: CONC_NGML
quantity: concentration at […]

# concentration at […] (compound: Cc1c(Cl)c2c(Cl)c(C)c1-c1c(-c3ccc(F)cc3)sc3ncnc(c13)O[C@@H](C(=O)O)Cc1cc(ccc1OCc1ccnc(-c3ccc(OC[C@H]4COCCO4)cc3)n1)OC[C@@H](CN1CCN(C)CC1)O2 ) is 0 ng/mL

----------
biological target: off-target receptors, ion channels, and transporters (Homo sapiens, UniProt P35348); assay: Off-target profiling (Supplementary Data 1); details: read-out: Alpha1A CHO Human - EC50; Bioprofiling 6pt Ag
Sequence (P35348 whole entry): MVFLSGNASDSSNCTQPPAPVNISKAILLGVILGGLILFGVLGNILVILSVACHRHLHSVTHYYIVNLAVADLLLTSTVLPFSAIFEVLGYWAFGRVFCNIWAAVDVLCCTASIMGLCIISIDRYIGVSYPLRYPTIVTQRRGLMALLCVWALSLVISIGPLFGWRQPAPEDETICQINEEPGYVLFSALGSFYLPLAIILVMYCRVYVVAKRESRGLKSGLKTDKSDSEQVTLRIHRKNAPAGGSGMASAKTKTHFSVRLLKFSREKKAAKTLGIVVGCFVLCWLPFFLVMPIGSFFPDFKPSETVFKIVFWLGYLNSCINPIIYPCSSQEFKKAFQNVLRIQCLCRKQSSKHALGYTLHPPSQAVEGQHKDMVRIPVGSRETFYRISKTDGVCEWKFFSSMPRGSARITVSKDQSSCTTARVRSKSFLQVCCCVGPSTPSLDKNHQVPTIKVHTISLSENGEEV
quantity: EC50

# EC50 (compound: Cc1c(Cl)c2c(Cl)c(C)c1-c1c(-c3ccc(F)cc3)sc3ncnc(c13)O[C@@H](C(=O)O)Cc1cc(ccc1OCc1ccnc(-c3ccc(OC[C@H]4COCCO4)cc3)n1)OC[C@@H](CN1CCN(C)CC1)O2 ) is > 10 µM

----------
experiment: Phase 1 first-in-human study (NCT04178902): pharmacokinetics; assay type: in vivo; settings: human, plasma, iv, patients, 30-minute IV infusion, 0.08–0.53 mg/kg; read-out: average half-life
quantity: half-life

# half-life (compound: Cc1c(Cl)c2c(Cl)c(C)c1-c1c(-c3ccc(F)cc3)sc3ncnc(c13)O[C@@H](C(=O)O)Cc1cc(ccc1OCc1ccnc(-c3ccc(OC[C@H]4COCCO4)cc3)n1)OC[C@@H](CN1CCN(C)CC1)O2 ) is < 60 min

----------
target: BCL-2 (Homo sapiens); experiment: Time-resolved FRET binding assay; settings: TR-FRET, individual determinations; read-out: Individual Ki, BCL-2
Sequence (P10415 whole entry): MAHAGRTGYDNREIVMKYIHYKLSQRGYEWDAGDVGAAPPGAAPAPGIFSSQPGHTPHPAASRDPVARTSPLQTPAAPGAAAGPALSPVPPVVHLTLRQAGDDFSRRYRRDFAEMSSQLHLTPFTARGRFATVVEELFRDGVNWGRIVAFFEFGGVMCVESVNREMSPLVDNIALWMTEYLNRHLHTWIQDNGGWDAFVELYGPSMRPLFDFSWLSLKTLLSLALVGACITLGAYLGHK
pKi: −log10 of the molar value.
quantity: pKi

# pKi (compound: Cc1c(Cl)c2c(Cl)c(C)c1-c1c(-c3ccc(F)cc3)sc3ncnc(c13)O[C@@H](C(=O)O)Cc1cc(ccc1OCc1ccnc(-c3ccc(OC[C@H]4COCCO4)cc3)n1)OC[C@@H](CN1CCN(C)CC1)O2 [ABBV-467] ) is < 6.19

# pKi (compound: COc1ccccc1-c1nccc(COc2ccc3cc2CC(C(=O)O)Oc2ncnc4sc(-c5ccc(F)cc5)c(c24)-c2ccc(c(Cl)c2C)N(CCN2CCN(C)CC2)C3)n1 (centres unmarked) [Compound 2] ) is < 5.92

----------
molecular target: BCL-XL (Homo sapiens); assay: Time-resolved FRET binding assay; conditions: read-out: TR-FRET, Ki, nM BCL-XL
Sequence (Q07817 whole entry): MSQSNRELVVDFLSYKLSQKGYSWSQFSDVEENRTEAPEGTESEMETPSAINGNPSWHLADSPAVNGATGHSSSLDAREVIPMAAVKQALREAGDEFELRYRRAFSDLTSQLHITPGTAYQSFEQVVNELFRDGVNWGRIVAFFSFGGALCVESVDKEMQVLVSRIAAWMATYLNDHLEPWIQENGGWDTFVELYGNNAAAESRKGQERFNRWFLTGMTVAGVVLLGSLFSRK
quantity: Ki

# Ki (molecule: Cc1c(Cl)c2c(Cl)c(C)c1-c1c(-c3ccc(F)cc3)sc3ncnc(c13)O[C@@H](C(=O)O)Cc1cc(ccc1OCc1ccnc(-c3ccc(OC[C@H]4COCCO4)cc3)n1)OC[C@@H](CN1CCN(C)CC1)O2 ) is > 376 nM

# Ki (molecule: COc1ccccc1-c1nccc(COc2ccc3cc2CC(C(=O)O)Oc2ncnc4sc(-c5ccc(F)cc5)c(c24)-c2ccc(c(Cl)c2C)N(CCN2CCN(C)CC2)C3)n1 (stereo not drawn) ) is > 660 nM

# Ki (molecule: COc1ccccc1-c1nccc(COc2ccccc2CC(Oc2ncnc3sc(-c4ccc(F)cc4)c(-c4ccc(OCCN5CCN(C)CC5)c(Cl)c4C)c23)C(=O)O)n1 (stereo not drawn) [Compound 1, reference compound] ) is > 660 nM
